SUBJECT_OF_TEST: Kras and SOS1 (biotin-tagged human Kras loaded with GDP, His-tagged human SOS1) (Homo sapiens, UniProt P01116, G12D)
Construct: made in house; host or cells: E. coli (stated for Kras only)
Sequence (P01116 1-188 isoform P01116-2 G12D): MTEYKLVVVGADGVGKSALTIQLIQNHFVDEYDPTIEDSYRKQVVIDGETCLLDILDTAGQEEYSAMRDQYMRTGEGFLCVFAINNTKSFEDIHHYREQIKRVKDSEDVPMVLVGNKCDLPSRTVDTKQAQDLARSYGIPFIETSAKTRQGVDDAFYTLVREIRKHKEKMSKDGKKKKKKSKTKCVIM
ASSAY_METHOD_TEXT: Protein-protein interaction inhibition between Kras and SOS1 (KrasGl2D-SOS PPI) using AlphaScreen
Format: binding
APPLIED_CONDITIONS: AlphaScreen; biotin-tagged human Kras loaded with GDP, His-tagged human SOS1; read-out: KRAS G12D-SOS PPI IC50
Positions of bridges follow the written chain, without caps; N, C: chain ends. Non-standard residues stand in square brackets, D forms with d. Residues, ends and D or L forms follow the SMILES beside them. *: point of attachment. hPhe(3,5-F2-4-CF3) = N[C@@H](CCc1cc(F)c(C(F)(F)F)c(F)c1)C(=O)O; hPhe(3-Cl-4-CF3) = N[C@@H](CCc1ccc(C(F)(F)F)c(Cl)c1)C(=O)O; hPhe(4-CF3) = N[C@@H](CCc1ccc(C(F)(F)F)cc1)C(=O)O; NEtPhe(4-Me) = CCN[C@@H](Cc1ccc(C)cc1)C(=O)O; NMeAbu(4,4,4-F3) = CN[C@@H](CC(F)(F)F)C(=O)O; NMePhe(3-Br) = CN[C@@H](Cc1cccc(Br)c1)C(=O)O; NMePhe(4-Cl) = CN[C@@H](Cc1ccc(Cl)cc1)C(=O)O; NMePhe(4-Me) = CN[C@@H](Cc1ccc(C)cc1)C(=O)O; hPhe(4-F) = N[C@@H](CCc1ccc(F)cc1)C(=O)O; hNle(7,7-F2) = N[C@@H](CCCCC(F)F)C(=O)O; NMeGly(cPent) = CN[C@H](C(=O)O)C1CCCC1; Phe(3-I) = N[C@@H](Cc1cccc(I)c1)C(=O)O; Pro(4,4-F2) = O=C(O)[C@@H]1CC(F)(F)CN1; NMeCha = CN[C@@H](CC1CCCCC1)C(=O)O; NMeChg = CN[C@H](C(=O)O)C1CCCCC1; NMeF = CN[C@@H](Cc1ccccc1)C(=O)O; NMeI = CC[C@H](C)[C@H](NC)C(=O)O; NMeD = CN[C@@H](CC(=O)O)C(=O)O; NMeL = CN[C@@H](CC(C)C)C(=O)O; NMeV = CN[C@H](C(=O)O)C(C)C; d(β3hA) = C[C@@H](N)CC(=O)O; Iva = CC[C@](C)(N)C(=O)O; NMeA = CN[C@@H](C)C(=O)O; NMeAib = CNC(C)(C)C(=O)O; Piperidide = C1CCN(*)CC1; Pyrrolidide = C1CCN(*)C1; Ac5c = NC1(C(=O)O)CCCC1; Aze = O=C(O)[C@@H]1CCN1; Ac3c = NC1(C(=O)O)CC1; Aib = CC(C)(N)C(=O)O; Sar = CNCC(=O)O
REPORTED_ENDPOINT: IC50

1. CC[C@H](C)[C@@H]1NC(=O)[C@H](CC(C)C)N(C)C(=O)C[C@@H](C)NC(=O)[C@H](C2CCCC2)N(C)C(=O)C2(CCCC2)NC(=O)[C@@H]2CCCN2C(=O)[C@H](CCc2ccc(C(F)(F)F)c(Cl)c2)NC(=O)CN(C)C(=O)[C@H](Cc2ccc(C)cc2)N(CC)C(=O)[C@@H]2CCN2C(=O)[C@H](C)N(C)C1=O [Compound 1714] (cyclo([Ac5c][NMeGly(cPent)][d(β3hA)][NMeL]I[NMeA][Aze][NEtPhe(4-Me)][Sar][hPhe(3-Cl-4-CF3)]P)) :: 2.3 nM
2. CC[C@H](C)[C@@H]1NC(=O)[C@H](CC(F)(F)F)N(C)C(=O)C[C@@H](C(=O)N2CCCC2)N(C)C(=O)[C@H](C2CCCCC2)N(C)C(=O)C2(CCCC2)NC(=O)[C@@H]2CC(F)(F)CN2C(=O)[C@H](CCc2cc(F)c(C(F)(F)F)c(F)c2)NC(=O)CN(C)C(=O)[C@H](Cc2ccc(C)cc2)N(C)C(=O)CN(C)C(=O)CN(C)C1=O [Compound 1317] ([NMeAbu(4,4,4-F3)]I[Sar][Sar][NMePhe(4-Me)][Sar][hPhe(3,5-F2-4-CF3)][Pro(4,4-F2)][Ac5c][NMeChg][NMeD]-Pyrrolidide; lactam N-11) :: 0.57 nM
3. CC[C@H](C)[C@@H]1NC(=O)[C@H](CC(C)C)N(C)C(=O)C[C@@H](C)NC(=O)[C@H](C(C)C)N(C)C(=O)[C@](C)(CC)NC(=O)[C@@H]2CCCN2C(=O)[C@H](CCc2ccc(C(F)(F)F)c(Cl)c2)NC(=O)CN(C)C(=O)[C@H](CC2CCCCC2)N(C)C(=O)CN(C)C(=O)CN(C)C1=O [Compound 149] (cyclo(I[Sar][Sar][NMeCha][Sar][hPhe(3-Cl-4-CF3)]P[Iva][NMeV][d(β3hA)][NMeL])) :: 51 nM
4. CC[C@H](C)[C@@H]1NC(=O)[C@H](CC(C)C)N(C)C(=O)C[C@@H](C(=O)N2CCCCC2)N(C)C(=O)[C@H](CC(C)C)NC(=O)C(C)(C)N(C)C(=O)[C@H](Cc2ccc(OC)cc2)NC(=O)[C@H](Cc2cccc(I)c2)NC(=O)CN(C)C(=O)[C@H](CC2CCCCC2)N(C)C(=O)[C@@H]2CCN2C(=O)[C@H](C)N(C)C1=O [Compound 169] ([NMeL]I[NMeA][Aze][NMeCha][Sar][Phe(3-I)]Y(Me)[NMeAib]L[NMeD]-Piperidide; lactam N-11) :: 16 nM
5. CC[C@H](C)[C@@H]1NC(=O)[C@H](CC(C)C)N(C)C(=O)C[C@@H](C(=O)N(C)C)N(C)C(=O)[C@H]([C@@H](C)CC)N(C)C(=O)C2(CCCC2)NC(=O)[C@H](Cc2cccc(Br)c2)N(C)C(=O)[C@H](CCc2ccc(C(F)(F)F)c(Cl)c2)NC(=O)CN(C)C(=O)[C@H](Cc2ccc(C)cc2)N(C)C(=O)[C@@H]2CCN2C(=O)[C@H](C)N(C)C1=O [Compound 1873] ([NMeL]I[NMeA][Aze][NMePhe(4-Me)][Sar][hPhe(3-Cl-4-CF3)][NMePhe(3-Br)][Ac5c][NMeI][NMeD]-NMe2; lactam N-11) :: 33 nM
6. CC[C@H](C)[C@@H]1NC(=O)[C@H](CC(C)C)N(C)C(=O)C[C@@H](C)NC(=O)[C@H](C(C)C)N(C)C(=O)C2(CC2)NC(=O)[C@@H]2CCCN2C(=O)[C@H](CCc2ccc(C(F)(F)F)c(Cl)c2)NC(=O)CN(C)C(=O)[C@H](CC2CCCCC2)N(C)C(=O)CN(C)C(=O)CN(C)C1=O [Compound 1111] (cyclo([Ac3c][NMeV][d(β3hA)][NMeL]I[Sar][Sar][NMeCha][Sar][hPhe(3-Cl-4-CF3)]P)) :: 41 nM
7. CC[C@H](C)[C@@H]1NC(=O)[C@H](C)N(C)C(=O)C[C@@H](C)NC(=O)[C@H](CC(C)C)N(C)C(=O)[C@H](Cc2ccccc2)N(C)C(=O)[C@@H]2CCCN2C(=O)[C@H](CCc2ccc(C(F)(F)F)cc2)NC(=O)CN(C)C(=O)[C@H](CC2CCCCC2)N(C)C(=O)CN(C)C(=O)CN(C)C1=O [Compound 1031] (cyclo(I[Sar][Sar][NMeCha][Sar][hPhe(4-CF3)]P[NMeF][NMeL][d(β3hA)][NMeA])) :: 320 nM
8. CC[C@H](C)[C@@H]1NC(=O)[C@H](C)N(C)C(=O)C[C@@H](C)NC(=O)[C@H](CC(C)C)N(C)C(=O)C(C)(C)NC(=O)[C@H](CC(C)C)N(C)C(=O)[C@H](CCc2ccc(F)cc2)NC(=O)CN(C)C(=O)[C@H](Cc2ccc(Cl)cc2)N(C)C(=O)CN(C)C(=O)CN(C)C1=O [Compound 28] (cyclo([Aib][NMeL][d(β3hA)][NMeA]I[Sar][Sar][NMePhe(4-Cl)][Sar][hPhe(4-F)][NMeL])) :: 160 nM
9. CC[C@H](C)[C@@H]1NC(=O)[C@H](C)N(C)C(=O)C[C@@H](C(=O)N2CCCC2)NC(=O)[C@H](CC(C)C)N(C)C(=O)[C@H](Cc2ccccc2)N(C)C(=O)[C@H](CCCCC(F)F)NC(=O)[C@H](CCc2ccc(C(F)(F)F)cc2)NC(=O)CN(C)C(=O)[C@H](Cc2ccc(Cl)cc2)N(C)C(=O)CN(C)C(=O)CN(C)C1=O [Compound 1092] ([NMeA]I[Sar][Sar][NMePhe(4-Cl)][Sar][hPhe(4-CF3)][hNle(7,7-F2)][NMeF][NMeL]D-Pyrrolidide; lactam N-11) :: 41 nM
